Exercise: state measured HepSE_Combined Scores for each of the compounds provided.
System: Hepatotoxicity
Answers are plain numbers.

For every item in the list below, what is its measured HepSE_Combined Scores?
1. COCCc1ccc(OCC(O)CNC(C)C)cc1 (stereo not drawn) [METOPROLOL]
2. CCn1nc(C(=O)O)c(=O)c2cc3c(cc21)OCO3 [CINOXACIN]
3. CC[C@]1(O)C[C@@H]2CN(CCc3c([nH]c4ccccc34)[C@@](C(=O)OC)(c3cc4c(cc3OC)N(C)[C@H]3[C@@](O)(C(=O)OC)[C@H](OC(C)=O)[C@]5(CC)C=CCN6CC[C@]43[C@@H]65)C2)C1 [VINBLASTINE]

[2, 0, 0]

For every item in the list below, what is its measured HepSE_Combined Scores?
1. CC(=O)NS(=O)(=O)c1ccc(N)cc1 [SULFACETAMIDE]
2. CC(C)NCC(O)COc1cccc2ccccc12 (stereo not drawn) [PROPRANOLOL]
3. Cc1ccnc2c1NC(=O)c1cccnc1N2C1CC1 [NEVIRAPINE]
4. OC[C@H]1O[C@@H](O[C@@H]2[C@@H](CO)O[C@](O)(CO)[C@H]2O)[C@H](O)[C@@H](O)[C@H]1O [LACTULOSE]
5. CC(C)Cn1cnc2c(N)nc3ccccc3c21 [IMIQUIMOD]

1: 1; 2: 0; 3: 6; 4: 0; 5: 0

----------
Record: HepSE_jaundice reported on Hepatotoxicity.
Answers are plain numbers.

Completed entries (count: 10):
• COc1ccnc(C[S+]([O-])c2nc3ccc(OC(F)F)cc3[nH]2)c1OC (stereo unspecified) = 1
• O=C(c1ccc(OCCN2CCCCC2)cc1)c1c(-c2ccc(O)cc2)sc2cc(O)ccc12 = 0
• CCCCC(=O)N(Cc1ccc(-c2ccccc2-c2nnn[nH]2)cc1)[C@H](C(=O)O)C(C)C = 0
• Clc1ccc(C(Cn2ccnc2)OCc2csc3c(Cl)cccc23)c(Cl)c1 (stereo unspecified) = 0
• CCOC(=O)C1(c2ccccc2)CCN(C)CC1 = 0
• O=C(O)c1cc(=O)c2c(OCC(O)COc3cccc4oc(C(=O)O)cc(=O)c34)cccc2o1 = 0
• CO/N=C(\C(=O)N[C@@H]1C(=O)N2C(C(=O)O)=C(COC(N)=O)CS[C@H]12)c1ccco1 = 1
• CCC1=C[C@@H]2CN(C1)Cc1c([nH]c3ccccc13)[C@@](C(=O)OC)(c1cc3c(cc1OC)N(C)[C@H]1[C@@](O)(C(=O)OC)[C@H](OC(C)=O)[C@]4(CC)C=CCN5CC[C@]31[C@@H]54)C2 = 0
• C[C@H](/C=C/[C@H](C)C(C)(C)O)[C@H]1CC[C@H]2/C(=C/C=C3C[C@@H](O)C[C@H](O)C3)CCC[C@]12C = 0
• CN1CCC[C@@H]1Cc1c[nH]c2ccc(CCS(=O)(=O)c3ccccc3)cc12 = 0

For every item in the list below, what is its measured HepSE_jaundice?
1. Cc1nc2n(c(=O)c1CCN1CCC(c3noc4cc(F)ccc34)CC1)CCCC2
2. COc1ccc(CCN(C)CCCC(C#N)(c2ccc(OC)c(OC)c2)C(C)C)cc1OC (stereo unspecified)

1: 1; 2: 1

For every item in the list below, what is its measured HepSE_jaundice?
1. CC1Cc2ccccc2N1NC(=O)c1ccc(Cl)c(S(N)(=O)=O)c1 (stereo unspecified) [INDAPAMIDE]
2. CC(C)CN(C[C@@H](O)[C@H](Cc1ccccc1)NC(=O)O[C@H]1CO[C@H]2OCC[C@H]21)S(=O)(=O)c1ccc(N)cc1
3. CCCCC[C@H](O)/C=C/[C@H]1[C@H](O)CC(=O)[C@@H]1C/C=C\CCCC(=O)O
4. CCCNC(C)C(=O)Nc1c(C)csc1C(=O)OC (stereo unspecified)

[1, 1, 0, 0]

All figures here come from ChEMBL document CHEMBL1909294.
